Below is a list of entries, each paired with its recorded pIC50 value.
assayed system: 11β-HSD1 (Homo sapiens (Human), UniProt P28845)
Sequence (P28845 whole entry): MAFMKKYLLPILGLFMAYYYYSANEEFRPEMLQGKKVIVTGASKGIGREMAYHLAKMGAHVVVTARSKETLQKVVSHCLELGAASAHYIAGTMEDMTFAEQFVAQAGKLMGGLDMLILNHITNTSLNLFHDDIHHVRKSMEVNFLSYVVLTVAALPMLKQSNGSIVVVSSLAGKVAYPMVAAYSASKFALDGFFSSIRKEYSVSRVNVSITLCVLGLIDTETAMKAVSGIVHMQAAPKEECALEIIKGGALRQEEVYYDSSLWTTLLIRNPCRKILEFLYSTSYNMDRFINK
assay notes: Biological Test Example 4: HTRF assay of 11β-HSD1 in human liver microsomes
Assay type: biochemical
condition info: HTRF cortisol detection
pIC50: −log10 of the molar value.
experimental readout: pIC50

INSERT INTO measurements (compound, result) VALUES
  ('N#Cc1ccc(=O)n([C@@H]2CCN(C(=O)OC3C4CC5CC3CC(O)(C5)C4)C2)c1 (stereo partly shown) [Example 77]', '< 5.00'),
  ('N#Cc1ccn([C@@H]2CCN(C(=O)OC3C4CC5CC3CC(O)(C5)C4)C2)c(=O)c1 (single isomer, unassigned; isomer 1) [Example 78 Isomer 1]', '< 5.00'),
  ('N#Cc1ccnc(O[C@@H]2CCN(C(=O)OC3C4CC5CC3CC(O)(C5)C4)C2)c1 (stereo partly shown) [Example 79]', '< 5.00'),
  ('N#Cc1ccn([C@@H]2CCN(C(=O)OC3C4CC5CC3CC(O)(C5)C4)C2)c(=O)c1 (single isomer, unassigned; isomer 2) [Example 78 Isomer 2]', 5.93);

---

Below is a list of entries, each paired with its recorded IC50 value.
assayed system: 11β-HSD1 (Homo sapiens (Human), UniProt P28845)
assay notes: Biological Test Example 1: inhibition of a microsomal preparation of 11β-HSD1 (SPA)
Type: biochemical
condition info: read-out: IC50
experimental readout: IC50 (nM)

INSERT INTO measurements (compound, assayed_system, unit_name, result) VALUES
  ('COC(=O)C1(c2ccccc2)CCN(C(=O)OC2C3CC4CC(C3)CC2C4)CC1 (centres unmarked)', '11β-HSD1 (Homo sapiens (Human), UniProt P28845)', 'nM', 6.65),
  ('Cc1nc2cc(F)ccc2n1C1CCN(C(=O)OC2C3CC4CC2CC(C(N)=O)(C4)C3)C1 (single isomer, unassigned; isomer 2) [EXAMPLE 74 Isomer 2]', '11β-HSD1 (Homo sapiens (Human), UniProt P28845)', 'nM', 16.6),
  ('Cc1nc2cc(F)ccc2n1C1CCN(C(=O)OC2C3CC4CC2CC(C(N)=O)(C4)C3)C1 (single isomer, unassigned; isomer 1) [EXAMPLE 74 Isomer 1]', '11β-HSD1 (Homo sapiens (Human), UniProt P28845)', 'nM', 2.22),
  ('Cn1ccc(-c2cnc(C3CCN(C(=O)OC4C5CC6CC4CC(C(N)=O)(C6)C5)C3)nc2)cc1=O (single isomer, unassigned; isomer 1) [EXAMPLE 57 Isomer 1]', '11β-HSD1 (Homo sapiens (Human), UniProt P28845)', 'nM', 50.5),
  ('CCOC(=O)C1(Cc2ccccc2OC)CCCN(C(=O)OC2C3CC4CC(C3)CC2C4)C1 (centres unmarked)', '11β-HSD1 (Homo sapiens (Human), UniProt P28845)', 'nM', 7.15);

---

assayed system: 11β-HSD1 (Homo sapiens (Human))
assay notes: Biological Test Example 1: inhibition of a microsomal preparation of 11β-HSD1 (SPA)
Assay type: biochemical
condition info: read-out: Average % inhibition at 100 nM, Biological Test Example 1; 100 nM compound
# binarize inhibition at 0.1 µM: threshold 90% inclusive, high side condition met, low side condition not met

INSERT INTO assay_data (compound, classification) VALUES
  ('NC(=O)[C@]12CC3CC(C1)[C@@H](OC(=O)N1CC[C@@H](Oc4ccc(C(F)(F)F)cn4)C1)C(C3)C2', 'condition met'),
  ('Cn1ccc(-c2cnc(C3CCN(C(=O)OC4C5CC6CC4CC(C(N)=O)(C6)C5)C3)nc2)cc1=O (single isomer, unassigned) [EXAMPLE 57 Isomer 2]', 'condition not met'),
  ('COC(=O)Cn1c(=O)n([C@H]2CCN(C(=O)O[C@H]3C4CC5CC3C[C@](C(N)=O)(C5)C4)C2)c2ccc(F)cc21', 'condition not met'),
  ('N#Cc1ccc2[nH]c(=O)n([C@@H]3CCN(C(=O)O[C@H]4C5CC6CC4C[C@](C(N)=O)(C6)C5)C3)c2c1', 'condition not met'),
  ('Cn1c(=O)n([C@@H]2CCN(C(=O)O[C@H]3C4CC5CC3C[C@](C(N)=O)(C5)C4)C2)c2ccccc21', 'condition met');

---

assayed system: 11β-HSD1 (Homo sapiens (Human))
assay notes: Biological Test Example 1: inhibition of a microsomal preparation of 11β-HSD1 (SPA)
Type: biochemical
condition info: Biological Test Example 1; read-out: IC50
Method: All reactions were carried out at rt in 96 well clear flexible PET Microbeta plates (PerkinElmer). […] After a 10 minute pre-incubation, 50 μL of enzyme solution containing microsomes isolated from CHO cells overexpressing human 11-HSD1 (10-20 μg/ml of total protein) was added, and the plates were incubated for 90 minutes at rt. […] The plates were shaken for 120 minutes at rt, and the SPA signal corresponding to [^3H]cortisol was measured on a Microbeta plate reader.
pIC50: −log10 of the molar value.
experimental readout: pIC50

INSERT INTO results (molecule, qualifier_operator, result) VALUES
  ('Cc1cc(C)nc(C2CCN(C(=O)OC3C4CC5CC3CC(C(N)=O)(C5)C4)C2)n1 (single isomer, unassigned) [EXAMPLE 43 Isomer 1]', '=', 8.24),
  ('Cn1c(C2CCN(C(=O)O[C@H]3C4CC5CC3C[C@](C(N)=O)(C5)C4)C2)nc2ccccc21 (some centres unmarked) [EXAMPLE 31]', '=', 7.04),
  ('Cc1ccc(C2CCN(C(=O)OC3C4CC5CC3CC(C(N)=O)(C5)C4)C2)nc1 (single isomer, unassigned) [EXAMPLE 35 Isomer 2]', '<', 7.00),
  ('Cc1cnc(C2CCN(C(=O)OC3C4CC5CC3CC(C(N)=O)(C5)C4)C2)nc1 (single isomer, unassigned) [EXAMPLE 39 Isomer 2]', '<', 7.00),
  ('O=C(OC1C2CC3CC(C2)CC1C3)N1CCC[C@@H]1c1nc(-c2ccncc2)cs1 (some centres unmarked) [EXAMPLE 50]', '=', 9.04),
  ('NC(=O)[C@]12CC3CC(C1)[C@@H](OC(=O)N1CC[C@@H](Oc4ccc5nccn5n4)C1)C(C3)C2 [EXAMPLE 3]', '=', 8.19),
  ('N#Cc1ccc2[nH]c(=O)n([C@@H]3CCN(C(=O)O[C@H]4C5CC6CC4C[C@](C(N)=O)(C6)C5)C3)c2c1 [EXAMPLE 65]', '=', 7.48),
  ('O=C(OC1C2CC3CC(C2)CC1C3)N1CCC(c2nc(-c3ccncc3)cs2)C1 (centres unmarked) [EXAMPLE 51]', '=', 9.15),
  ('O=C(OC1C2CC3CC(C2)CC1C3)N1CCC[C@@H]1c1nc(-c2cc[n+]([O-])cc2)cs1 (some centres unmarked) [EXAMPLE 52]', '=', 8.92),
  ('Cc1ccnc(C2CCN(C(=O)OC3C4CC5CC3CC(C(N)=O)(C5)C4)C2)n1 (single isomer, unassigned) [EXAMPLE 38 Isomer 1]', '=', 8.48),
  ('NC(=O)[C@]12CC3CC(C1)[C@@H](OC(=O)N1CC[C@@H](n4c(=O)[nH]c5cccc(Cl)c54)C1)C(C3)C2 [EXAMPLE 68]', '=', 9.34),
  ('Cn1ccc(-c2cnc(C3CCN(C(=O)OC4C5CC6CC4CC(C(N)=O)(C6)C5)C3)nc2)cc1=O (single isomer, unassigned) [EXAMPLE 57 Isomer 2]', '<', 7.00),
  ('Cc1nnc(C2CCCN(C(=O)OC3C4CC5CC3CC(O)(C5)C4)C2)o1 (centres unmarked) [EXAMPLE 25]', '=', 7.40),
  ('NC(=O)[C@]12CC3CC(C1)[C@@H](OC(=O)N1CCC(c4ncc(Cl)cn4)C1)C(C3)C2 (single isomer, unassigned) [EXAMPLE 26 Isomer 1a]', '=', 8.94),
  ('Cc1cc(C2CCN(C(=O)OC3C4CC5CC3CC(C(N)=O)(C5)C4)C2)nn1C (single isomer, unassigned) [EXAMPLE 40 Isomer 2]', '<', 7.00),
  ('Cc1nc2cccc(Cl)c2n1[C@@H]1CCN(C(=O)OC2C3CC4CC2CC(C(N)=O)(C4)C3)C1 (some centres unmarked) [EXAMPLE 59]', '=', 8.72),
  ('NC(=O)[C@]12CC3CC(C1)[C@@H](OC(=O)N1CCCC1c1ncc(Cl)cn1)C(C3)C2 (some centres unmarked) [EXAMPLE 45]', '=', 7.87),
  ('Cc1ccnc(C2CCN(C(=O)OC3C4CC5CC3CC(C(N)=O)(C5)C4)C2)n1 (single isomer, unassigned) [EXAMPLE 38 Isomer 2]', '<', 7.00),
  ('NC(=O)c1cnc(C2CCN(C(=O)OC3C4CC5CC3CC(C(N)=O)(C5)C4)C2)nc1 (single isomer, unassigned) [EXAMPLE 47 Isomer 1]', '<', 7.00),
  ('NC(=O)c1cnc(C2CCN(C(=O)OC3C4CC5CC3CC(C(N)=O)(C5)C4)C2)nc1 (single isomer, unassigned) [EXAMPLE 47 Isomer 2]', '=', 7.04),
  ('Cc1ncc(C2CCN(C(=O)OC3C4CC5CC3CC(C(N)=O)(C5)C4)C2)cn1 (single isomer, unassigned) [EXAMPLE 36 Isomer 2]', '<', 7.00),
  ('NC(=O)[C@]12CC3CC(C1)[C@@H](OC(=O)N1CC[C@H](Oc4ccc(C(F)(F)F)cn4)C1)C(C3)C2 [EXAMPLE 6]', '=', 9.27),
  ('O=C(OC1C2CC3CC1CC(C(=O)O)(C3)C2)N1CCC(c2ncc(Cl)cn2)C1 (single isomer, unassigned) [EXAMPLE 46 Isomer 1]', '<', 7.00),
  ('Cn1c(=O)n([C@H]2CCN(C(=O)O[C@H]3C4CC5CC3C[C@](C(N)=O)(C5)C4)C2)c2c(Cl)cccc21 [EXAMPLE 71]', '=', 9.17),
  ('NC(=O)[C@]12CC3CC(C1)[C@@H](OC(=O)N1CCC[C@@H]1c1nc(-c4cc[nH]c(=O)c4)cs1)C(C3)C2 [EXAMPLE 54]', '=', 8.57),
  ('NC(=O)[C@]12CC3CC(C1)[C@@H](OC(=O)N1CCC(c4ncc(Cl)cn4)C1)C(C3)C2 (single isomer, unassigned) [EXAMPLE 26 Isomer 2]', '<', 7.00);
